target: Tubulin (Bos taurus, UniProt Q6B856+Q862L2+Q862F3); assay: Inhibition of bovine brain tubulin polymerization (ITP).
ENDPOINT_LABEL: IC50 (nM)
Return type: number; implicit unit nM.

Sample answers from the record:
COc1cccc(C2CC(=O)c3cc4c(cc3N2)OCO4)c1 (stereo unspecified) ... 820
O=C1C[C@@H](c2ccccc2F)Nc2cc3c(cc21)OCO3 ... 560
O=C1CC(c2ccccc2F)Nc2cc3c(cc21)OCO3 (stereo unspecified) ... 1100

Would you kindly share the measured IC50 for COc1cccc([C@H]2CC(=O)c3ccccc3N2)c1 ?
7200

Reported IC50, compound O=C1CC(c2ccc(F)cc2)Nc2cc3c(cc21)OCO3 (stereo unspecified) : ____
2000

Field request: IC50 | item: O=C1C[C@H](c2ccccc2F)Nc2cc3c(cc21)OCO3
12000

// IC50 lookup, key: COc1cccc(-c2cc(O)c3cccnc3n2)c1
790

# query: IC50 of entry COc1cccc([C@@H]2CC(=O)c3cc4c(cc3N2)OCO4)c1
690

Entry COc1cccc(C2CC(=O)c3ccccc3N2)c1 (stereo unspecified) has what IC50?
3300

###

tested on: MCF7; assay: Cytotoxicity against human breast cancer cells (MCF-7) using SRB assay.; type: functional; conditions: read-out: ED50 (the source's name)
ENDPOINT_LABEL: EC50 (µg/mL)
Please reply with the bare figure in µg/mL and do not write the unit itself.

O=C1CC(c2ccccc2F)Nc2cc3c(cc21)OCO3 (configuration not stated) ... 0.06
O=C1C[C@H](c2ccccc2F)Nc2cc3c(cc21)OCO3 ... 0.85
CC(NC(=O)C(=O)N/N=C1\C[C@H](c2ccccc2F)Nc2cc3c(cc21)OCO3)c1ccccc1 (some centres not stated) ... 25
O=C1CC(c2ccccc2)Nc2ccccc21 (configuration not stated) ... 0.13
COc1cccc([C@H]2CC(=O)c3cc4c(cc3N2)OCO4)c1 ... 0.12

Suppose we examine the compound O=C1CC(c2cccc(F)c2)Nc2cc3c(cc21)OCO3 (configuration not stated) ; what EC50 value has been reported?
0.032

Reported EC50, compound COc1cccc([C@@H]2CC(=O)c3cc4c(cc3N2)OCO4)c1 : ____
0.03

Query (compound): COc1cccc([C@@H]2CC(=O)c3ccccc3N2)c1 ; field requested: EC50
0.3

###

IC50 reference
molecular target: Tubulin (Bos taurus, UniProt Q6B856+Q862L2+Q862F3); experiment: Inhibition of bovine brain tubulin polymerization (ITP).
Quick reminder: number only, in nM, skip the unit.

O=C1CC(c2cccc(F)c2)Nc2cc3c(cc21)OCO3 (stereo not given) ... 750

Which IC50 value belongs to COc1cccc(-c2cc(O)c3ccccc3n2)c1 ?
1500

// returns reported IC50 for input COc1cccc([C@H]2CC(=O)c3cc4c(cc3N2)OCO4)c1
2300

###

EC50 values, listed per item
system: MCF7; test: Cytotoxicity against human breast cancer cells (MCF-7) using SRB assay.; format: functional; details: read-out: ED50 (the source's name)
The reply should contain only the number, in µg/mL.

Solved cases below.
COc1cccc(C2CC(=O)c3cc(N4CCCC4)ccc3N2)c1 (stereo unspecified) ... 0.11
COc1cccc([C@H]2CC(=O)c3ccccc3N2)c1 ... 0.6
O=C1CC(c2cccc(Cl)c2)Nc2ccc(N3CCCC3)cc21 (stereo unspecified) ... 0.31
CC(NC(=O)C(=O)N/N=C1\C[C@@H](c2ccccc2F)Nc2cc3c(cc21)OCO3)c1ccccc1 (stereo partly specified) ... 8.5

Form field: reported EC50 of COc1ccccc1C1CC(=O)c2ccccc2N1 (stereo unspecified)
6.5

###

molecular target: Tubulin (Bos taurus) (UniProt Q6B856+Q862L2+Q862F3); assay: % inhibition of [3H]colchicine binding to bovine brain tubulin at a concentration of 5 uM
Label 0 if inhibition falls below 80%; label 1 in every other case.

COc1cccc(-c2cc(O)c3cccnc3n2)c1 ... 0
COc1cccc([C@@H]2CC(=O)c3cc4c(cc3N2)OCO4)c1 ... 0
COc1cccc(C2CC(=O)c3cc4c(cc3N2)OCO4)c1 (centres undefined) ... 0
O=C1C[C@@H](c2ccccc2F)Nc2cc3c(cc21)OCO3 ... 0
COc1cccc(-c2cc(O)c3cc4c(cc3n2)OCO4)c1 ... 0
O=C1CC(c2cccc(Cl)c2)Nc2ccc(N3CCCC3)cc21 (centres undefined) ... 1

Does inhibition meet or surpass 80% for COc1cccc(-c2cc(O)c3cc(N4CCCC4)ccc3n2)c1 ?
1

Record O=C1CC(c2cccc(F)c2)Nc2cc3c(cc21)OCO3 (centres undefined) ; criterion: inhibition no lower than 80%. Met?
0

Is the recorded value of inhibition equal to or greater than 80% for this molecule? COc1cccc(C2CC(=O)c3cc(N4CCCC4)ccc3N2)c1 (centres undefined)
1

###

test system: A549; assay: Cytotoxicity against human lung carcinoma cells (A-549) using SRB assay.; assay type: functional; details: read-out: ED50 (the source's name)
ENDPOINT_LABEL: EC50 (µg/mL)
Report the value in µg/mL with no unit label.

Solved cases (5 shown):
O=C1C[C@H](c2ccccc2F)Nc2cc3c(cc21)OCO3 ... 0.6
COc1cccc([C@H]2C/C(=N\NC(=O)C(=O)NC(C)c3ccccc3)c3cc4c(cc3N2)OCO4)c1 (stereo partly drawn) ... 11.5
CC(NC(=O)C(=O)N/N=C1\C[C@H](c2ccccc2F)Nc2cc3c(cc21)OCO3)c1ccccc1 (stereo partly drawn) ... 9
O=C1CC(c2cccc(F)c2)Nc2cc3c(cc21)OCO3 (stereo not drawn) ... 0.012
COc1ccccc1C1CC(=O)c2ccccc2N1 (stereo not drawn) ... 6

Record request: EC50 value, item O=C1CC(c2ccccc2F)Nc2cc3c(cc21)OCO3 (stereo not drawn)
0.08

Which EC50 is listed for COc1cccc([C@@H]2CC(=O)c3ccccc3N2)c1 ?
0.15

# get_value(readout='EC50', item= COc1cccc([C@@H]2C/C(=N\NC(=O)C(=O)NC(C)c3ccccc3)c3ccccc3N2)c1 (stereo partly drawn) )
8

# get_value(readout='EC50', item= COc1cccc([C@H]2CC(=O)c3ccccc3N2)c1 )
0.5

Name the recorded EC50 for O=C1CC(c2cccc(Cl)c2)Nc2ccc(N3CCCC3)cc21 (stereo not drawn) .
0.09

Quick one: EC50 for COc1cccc(C2CC(=O)c3cc4c(cc3N2)OCO4)c1 (stereo not drawn) ?
0.04

What does the data say about its EC50? Entry: O=C1CC(c2ccc(F)cc2)Nc2cc3c(cc21)OCO3 (stereo not drawn)
1

Entry under review: COc1cccc(C2CC(=O)c3cc(N4CCCC4)ccc3N2)c1 (stereo not drawn) . Reported EC50?
0.01

So what's the measured EC50 for this one? CC(NC(=O)C(=O)N/N=C1\C[C@@H](c2ccccc2F)Nc2cc3c(cc21)OCO3)c1ccccc1 (stereo partly drawn)
13

EC50 lookup needed for COc1cccc([C@H]2CC(=O)c3cc4c(cc3N2)OCO4)c1 , thanks.
0.09

###

tested on: MCF7; experiment: Cytotoxicity against human breast cancer cells (MCF-7) using SRB assay.; format: functional; conditions: read-out: ED50 (the source's name)
Assign labels as follows, please: rule met for EC50 below 3 µg/mL; rule not met for EC50 equal to or exceeding 3 µg/mL.

The examples below pair each entry with its known result.
COc1cccc([C@H]2C/C(=N\NC(=O)C(=O)NC(C)c3ccccc3)c3ccccc3N2)c1 (some centres undefined) ... rule not met
O=C1CC(c2ccc(F)cc2)Nc2cc3c(cc21)OCO3 (centres undefined) ... rule met
COc1cccc(C2CC(=O)c3ccccc3N2)c1 (centres undefined) ... rule met
COc1cccc([C@H]2C/C(=N\NC(=O)C(=O)NC(C)c3ccccc3)c3cc4c(cc3N2)OCO4)c1 (some centres undefined) ... rule not met

Is it true that EC50 reported for COc1cccc(C2CC(=O)c3cc4c(cc3N2)OCO4)c1 (centres undefined) is less than 3 µg/mL?
rule met

# TODO verify EC50 < 3 µg/mL strictly for this compound: COc1cccc([C@@H]2C/C(=N\NC(=O)C(=O)NC(C)c3ccccc3)c3ccccc3N2)c1 (some centres undefined)
rule not met

Does O=C1C[C@@H](c2ccccc2F)Nc2cc3c(cc21)OCO3 have EC50 strictly under 3 µg/mL?
rule met

###

tested on: A549; assay: Cytotoxicity against human lung carcinoma cells (A-549) using SRB assay.; format: functional; settings: read-out: ED50 (the source's name)
For each record, check the reported EC50: if it is below 0.03 µg/mL write class 1, else write class 0.

Use these answered entries as a reference point.
COc1cccc([C@H]2C/C(=N\NC(=O)C(=O)NC(C)c3ccccc3)c3ccccc3N2)c1 (stereo partly drawn) ... class 0
COc1cc2c(c(OC)c1OC)-c1ccc(OC)c(=O)cc1[C@@H](NC(C)=O)CC2 ... class 1
O=C1CC(c2ccccc2)Nc2ccccc21 (stereo not drawn) ... class 1
COc1ccc(C2CC(=O)c3ccccc3N2)cc1 (stereo not drawn) ... class 0
COc1cccc(C2CC(=O)c3ccccc3N2)c1 (stereo not drawn) ... class 0

is_below(EC50, 0.03 µg/mL) for O=C1C[C@@H](c2ccccc2F)Nc2cc3c(cc21)OCO3 ?
class 0

Determine if COc1cccc([C@@H]2C/C(=N\NC(=O)C(=O)NC(C)c3ccccc3)c3cc4c(cc3N2)OCO4)c1 (stereo partly drawn) shows EC50 strictly lower than 0.03 µg/mL.
class 0
